- measured.target: FgPT1 (Fusarium globosum, UniProt A0A8H5XPW9)
- Construct: gene FGLOB1_12591; full length, 426 residues, N-terminal His6 tag (pET-28a, synthetic gene), E. coli BL21(DE3), Ni-NTA
- Sequence (A0A8H5XPW9 entry or part of it): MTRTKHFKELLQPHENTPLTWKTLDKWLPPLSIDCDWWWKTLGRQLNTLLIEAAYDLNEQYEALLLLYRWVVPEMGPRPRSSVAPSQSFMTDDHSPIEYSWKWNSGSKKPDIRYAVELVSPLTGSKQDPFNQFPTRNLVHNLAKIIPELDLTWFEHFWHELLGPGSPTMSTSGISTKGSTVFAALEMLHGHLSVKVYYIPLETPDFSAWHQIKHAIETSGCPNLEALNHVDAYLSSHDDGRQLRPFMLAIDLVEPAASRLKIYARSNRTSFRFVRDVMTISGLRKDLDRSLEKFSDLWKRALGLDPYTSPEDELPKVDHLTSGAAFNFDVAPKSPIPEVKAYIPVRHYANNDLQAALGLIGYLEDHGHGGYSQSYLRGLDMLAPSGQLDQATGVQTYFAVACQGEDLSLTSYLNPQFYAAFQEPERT
- assay.overview: HPLC product formation, Michaelis-Menten fit
- Format: biochemical
- condition.description: 1 mM DMAPP, 1 mM BaCl2, 100 mM Tris-HCl pH 7.5, 37 °C; apparent
Please respond with reported KM (mM) for every item in the list.

Study these solved cases before continuing.
compound=O=C1C[C@@H](c2ccc(O)cc2)Oc2cc(O)ccc21 quantity_kind="KM (mM)" observed="0.93 ± (0.161) mM"
compound=O=C1C[C@@H](c2ccc(O)cc2)Oc2cc(O)cc(O)c21 quantity_kind="KM (mM)" observed="0.26 ± (0.077) mM"
compound=O=C1C[C@@H](c2ccc(O)c(O)c2)Oc2cc(O)cc(O)c21 quantity_kind="KM (mM)" observed="0.23 ± (0.026) mM"

Value sought for every listed compound: KM (mM).
1. O=C1c2c(O)cc(O)cc2OCC1c1ccc(O)cc1 (centres unmarked) [compound 6, Dihydrogenistein]
2. COc1ccc([C@@H]2CC(=O)c3c(O)cc(O)cc3O2)cc1O

A)
["0.14 ± (0.026) mM", "0.94 ± (0.075) mM"]
